Entries annotated with measured inhibition at 10 µM
ASSAYED_SYSTEM: B1R receptor of the rat (Rattus norvegicus, UniProt P97583)
Construct: host or cells: CHO K1 cells (Chinese hamster ovary), stably transfected
Sequence (P97583 1-337): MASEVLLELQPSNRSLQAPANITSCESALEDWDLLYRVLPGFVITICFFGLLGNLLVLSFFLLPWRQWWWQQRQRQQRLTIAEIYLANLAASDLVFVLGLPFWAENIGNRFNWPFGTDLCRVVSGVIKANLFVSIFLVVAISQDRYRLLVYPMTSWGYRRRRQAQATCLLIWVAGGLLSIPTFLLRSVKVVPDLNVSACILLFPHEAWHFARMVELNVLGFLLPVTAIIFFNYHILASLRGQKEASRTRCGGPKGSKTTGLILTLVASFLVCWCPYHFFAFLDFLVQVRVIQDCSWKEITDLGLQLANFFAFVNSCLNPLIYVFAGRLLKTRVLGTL
ASSAY_METHOD_TEXT: Functional study on the bradykinin receptor 1 (B1R), FLIPR Ca2+ assay, rB1R cells
Assay type: cell-based
TEST_PARAMETERS: CHO-K1, test substance 10 μM, agonist Des-Arg9-bradykinin 100 nM, % inhibition compared with the maximum achievable inhibition, read-out: B1R Antagonism, rat [10 μM] % Inhibition
Report only the number, with the unit % understood.

Would you please look over these solved cases?
{"MOLECULE": "CN(C)CCCN1CCN(C(=O)COCC2CCCCN2S(=O)(=O)c2c(Cl)cccc2Cl)CC1 (stereo not drawn)", "RESULT_UNITS": "%", "inhibition at 10 µM": 102}
{"MOLECULE": "COc1cc(C)c(S(=O)(=O)N2CCCC2COCC(=O)N2CCN(c3ccccn3)CC2)c(C)c1 (stereo not drawn)", "RESULT_UNITS": "%", "inhibition at 10 µM": 95.5}
{"MOLECULE": "O=C(COCC1CCCCN1S(=O)(=O)c1c(Cl)cccc1Cl)N1CCC(CCN2CCCCC2)CC1 (stereo not drawn)", "RESULT_UNITS": "%", "inhibition at 10 µM": 95.4}
{"MOLECULE": "COc1cc(C)c(S(=O)(=O)N2CCCC2COCC(=O)N2CCC(N3CCCCC3)CC2)c(C)c1 (stereo not drawn)", "RESULT_UNITS": "%", "inhibition at 10 µM": 102}
{"MOLECULE": "Cc1cc(C)c(S(=O)(=O)N2CCCCC2COCC(=O)N2CCC(N3CCN(C)CC3)CC2)c(C)c1 (stereo not drawn)", "RESULT_UNITS": "%", "inhibition at 10 µM": 83.3}

Next:
Record Cc1cc(C)c(S(=O)(=O)N2Cc3ccccc3CC2COCC(=O)NCc2ccccc2N2CCN(C)CC2)c(C)c1 (stereo not drawn) . Reported inhibition at 10 µM: 9.11

---

ASSAYED_SYSTEM: B1R receptor of the rat (Rattus norvegicus, UniProt P97583)
Construct: host or cells: CHO K1 cells (Chinese hamster ovary), stably transfected
ASSAY_METHOD_TEXT: Functional study on the bradykinin receptor 1 (B1R), FLIPR Ca2+ assay, rB1R cells
Type: cell-based
TEST_PARAMETERS: CHO-K1, test substance 10 μM, agonist Des-Arg9-bradykinin 100 nM, % inhibition compared with the maximum achievable inhibition, read-out: B1R Antagonism, rat [10 μM] % Inhibition
Entries annotated with measured inhibition at 10 µM
Report only the number, with the unit % understood.

Would you please look over these solved cases?
{"COMPOUND": "COc1cc(C)c(S(=O)(=O)N2CCCCC2COCC(=O)NCCCCCN(C)C)c(C)c1 (centres unmarked)", "inhibition at 10 µM, %": 90.5}
{"COMPOUND": "COc1cc(C)c(S(=O)(=O)N2CCCC2COCC(=O)NCC(c2ccc(C(F)(F)F)cc2)N2CCCC2)c(C)c1 (centres unmarked)", "inhibition at 10 µM, %": 103}
{"COMPOUND": "COc1cc(C)c(S(=O)(=O)N2CCCC2COCC(=O)NCCCCN2CCCC2)c(C)c1 (centres unmarked)", "inhibition at 10 µM, %": 101}
{"COMPOUND": "COc1cc(C)c(S(=O)(=O)N2CCCC2COCC(=O)NCc2ccc(N3CCN(C)CC3)cc2)c(C)c1 (centres unmarked)", "inhibition at 10 µM, %": 110}
{"COMPOUND": "COc1cc(C)c(S(=O)(=O)N2CCCC2COCC(=O)Nc2ccc3c(c2)ncn3C)c(C)c1 (centres unmarked)", "inhibition at 10 µM, %": 73.4}
{"COMPOUND": "CN1CCC(N2CCN(C(=O)COCC3CCCN3S(=O)(=O)c3ccc(Cl)c(Cl)c3)CC2)CC1 (centres unmarked)", "inhibition at 10 µM, %": 34}
{"COMPOUND": "O=C(COCC1CCCCN1S(=O)(=O)c1cccc(Br)c1)N1CCC(CCN2CCCC2)CC1 (centres unmarked)", "inhibition at 10 µM, %": 63.2}

Summary: COc1cc(C)c(S(=O)(=O)N2CCCCC2COCC(=O)Nc2cc(-c3ccccc3)[nH]n2)c(C)c1 (centres unmarked) , B1R receptor of the rat (Rattus norvegicus, UniProt P97583), inhibition at 10 µM = 107
